B1: PLAGL1 (parent)
chain: TKEKKHQCDHCERCFYTRKDVRRH

Variants of: B1
Assay: protein stability index of a GFP-peptide fusion (GPS, HEK-293T) (PSI 1-6); higher = more stable;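 further: lentivirally expressed fusions sorted by FACS into six bins by GFP to DsRed ratio, PSI derived from sequencing read proportions per bin multiplied by bin number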
Conditions: c terminus: a fixed tail appended
assay-metric: protein stability index

mutations | test-value
H24F | 3.06
D9K | 3.24
Q7E | 3.31
K19Y | 3.25
K4D | 3.84
H6C | 3.7
R18H | 3.29
K19N | 3.3
H10Q | 3.47
H24G | 3.52
T17Q | 3.44
K19G | 3.52
E12I | 2.89
C14Q | 3.41
K5P | 3.67
K2Q | 3.67
